Target Under Test: HLA-A*0201 (Homo sapiens, UniProt P04439, D140Y/D185E/D98H/E176V/E277Q/G131W/G231S/I119V/I121R/I166T/I218V/L300P/L318F/N151K/N90K/P208A/P217A/Q86G/Q94H/R138H/R169H/T345S)
Protocol Text: UV-ligand exchange with ELISA of stabilized MHC complexes
Type: binding
Settings: class symbol

Sequence Content	Exchange yield
AMATESILHFA (listed as Homo sapiens) [SEQ ID NO 86]	+++ (50%-70%, +++)
FLVDGSWSV (listed as Homo sapiens) [SEQ ID NO 24]	+++ (50%-70%, +++)

----------
Target Under Test: HLA-A*0201 (Homo sapiens, UniProt P04439, D140Y/D185E/D98H/E176V/E277Q/G131W/G231S/I119V/I121R/I166T/I218V/L300P/L318F/N151K/N90K/P208A/P217A/Q86G/Q94H/R138H/R169H/T345S)
Protocol Text: UV-ligand exchange with ELISA of stabilized MHC complexes
Assay type: binding
Settings: class symbol

Sequence Content	Exchange yield
ALVDHTPYL (listed as Homo sapiens) [SEQ ID NO 20]	++ (20%-49% = ++)
VLLPVEVATHYL (listed as Homo sapiens) [SEQ ID NO 11]	+++ (50%-70%, +++)
TLTNIIHNL (listed as Homo sapiens) [SEQ ID NO 46]	+++ (50%-70%, +++)
ILFEINPKL (listed as Homo sapiens) [SEQ ID NO 1]	++++ (>70 = ++++)
ALYDSVILL (listed as Homo sapiens) [SEQ ID NO 75]	++ (20%-49% = ++)
NLIEKSIYL (listed as Homo sapiens) [SEQ ID NO 4]	++ (20%-49% = ++)
AMSSKFFLV (listed as Homo sapiens) [SEQ ID NO 69]	++ (20%-49% = ++)
FLLDGSANV (listed as Homo sapiens) [SEQ ID NO 73]	++++ (>70 = ++++)
RVLPPSALQSV (listed as Homo sapiens) [SEQ ID NO 87]	+++ (50%-70%, +++)
FLHHLEIEL (listed as Homo sapiens) [SEQ ID NO 23]	+++ (50%-70%, +++)
KIVDFSYSV (listed as Homo sapiens) [SEQ ID NO 85]	+++ (50%-70%, +++)
SMSGYDQVL (listed as Homo sapiens) [SEQ ID NO 8]	++ (20%-49% = ++)
KLAVALLAA (listed as Homo sapiens) [SEQ ID NO 15]	++ (20%-49% = ++)
ILMGTELTQV (listed as Homo sapiens) [SEQ ID NO 84]	++ (20%-49% = ++)
KLVEFDFLGA (listed as Homo sapiens) [SEQ ID NO 54]	+++ (50%-70%, +++)
KLDETNNTL (listed as Homo sapiens) [SEQ ID NO 6]	+++ (50%-70%, +++)
VLFPNLKTV (listed as Homo sapiens) [SEQ ID NO 35]	++ (20%-49% = ++)
TVAEVIQS V (TVAEVIQSV; listed as Homo sapiens) [SEQ ID NO 27]	+++ (50%-70%, +++)
YVYQNNIYL (listed as Homo sapiens) [SEQ ID NO 68]	++ (20%-49% = ++)
ALASVIKEL (listed as Homo sapiens) [SEQ ID NO 89]	+++ (50%-70%, +++)
